tested on: L1210 leukemia ip in BDF1 mice, survival T/C; assay: NCI In Vivo Anticancer Drug Screen. Data for tumor model L1210 Leukemia (intraperitoneal) in B6D2F1 (BDF1) mice; conditions: endpoint: mean survival time; dose: 200.0 mg/kg/injection; schedule: Q01DX009 (ip); vehicle: Klucel (hydroxypropylcellulose) (HPC); higher = longer survival
Toxic doses and inconclusive results are not listed.
measurement_kind: T/C

CCCCN(CCCC)C(=S)S[As](SC(=S)N(CCCC)CCCC)SC(=S)N(CCCC)CCCC ... 90 % of control
Cc1cc([N+](=O)[O-])ccc1NC(=O)Nc1cccc(F)c1 ... 94 % of control
C/C(=C\C(=O)Nc1ncn[nH]1)Nc1ncn[nH]1 ... 92 % of control
O=C(c1ccccc1)C1OC1(CBr)c1ccccc1 (stereo not given) ... 98 % of control

Below: the item to evaluate.
Just so you know, measured T/C for Cc1cccc(NC(=O)Nc2ccc(F)cc2)n1 came out at 95 % of control
